Where these numbers come from: patent US20240132624A1

targetOrTestSystem: T1, cyno FcRn/b2M (cyno, UniProt Q8SPV9 24-297; Q8SPW0 21-119, biotinylated)
T1 construct: bought recombinant biotinylated protein (Immunitrack ITF05 or ACRO FCM-C82W5); also called cFcRn; cFcRn/cb2M
T1 sequence (Q8SPV9 24-297 limits assumed, chain 1 of 2): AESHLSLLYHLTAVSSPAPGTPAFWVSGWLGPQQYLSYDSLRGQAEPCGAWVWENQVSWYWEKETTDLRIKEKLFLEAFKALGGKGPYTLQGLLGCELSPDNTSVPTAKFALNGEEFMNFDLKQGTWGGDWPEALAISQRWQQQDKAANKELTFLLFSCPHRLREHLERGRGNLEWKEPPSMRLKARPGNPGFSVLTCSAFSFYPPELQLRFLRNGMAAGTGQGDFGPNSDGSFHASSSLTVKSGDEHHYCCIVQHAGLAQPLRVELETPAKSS
T1 sequence (Q8SPW0 21-119 limits assumed, chain 2 of 2): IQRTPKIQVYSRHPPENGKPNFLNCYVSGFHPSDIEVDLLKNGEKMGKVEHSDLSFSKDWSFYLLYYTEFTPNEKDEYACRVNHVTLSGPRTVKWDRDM
measurementProtocol: SPR off-rate; pH 7.4 vs pH 6.0;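 note: surface plasmon resonance with diluted periplasmic extracts flowed over ligand surfaces, 120 s association and 600–3600 s dissociation at 25 °C, running buffer containing 150 mM NaCl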
Give kd ratio pH 7.4/6.0 for every item shown.
Give bare numbers.

As a guide, the following entries are already answered.
T0263018B11 S100L (VHH, name in Kabat numbering, FLAG3-His6 tagged) VHH: EVQLVESGGGVVQPGGSLRLSCAASGFTFSSYAMYWVRQAPGKGLEWVSAISSGGGSTDYADSVKGRFTISRDNSKNTLYLQMNSLRPEDTALYYCAADTLYTLLTWYSYWGQGTLVTVSS
62
T0263018B11 T100bE (VHH, name in Kabat numbering, FLAG3-His6 tagged) VHH: EVQLVESGGGVVQPGGSLRLSCAASGFTFSSYAMYWVRQAPGKGLEWVSAISSGGGSTDYADSVKGRFTISRDNSKNTLYLQMNSLRPEDTALYYCAADTLYTSLEWYSYWGQGTLVTVSS
51
T0263018B11 W100cV (VHH, name in Kabat numbering, FLAG3-His6 tagged) VHH: EVQLVESGGGVVQPGGSLRLSCAASGFTFSSYAMYWVRQAPGKGLEWVSAISSGGGSTDYADSVKGRFTISRDNSKNTLYLQMNSLRPEDTALYYCAADTLYTSLTVYSYWGQGTLVTVSS
76

For each entry beneath this line, provide reported kd ratio pH 7.4/6.0.
1. T0263018B11 S101M (VHH, name in Kabat numbering, FLAG3-His6 tagged) VHH: EVQLVESGGGVVQPGGSLRLSCAASGFTFSSYAMYWVRQAPGKGLEWVSAISSGGGSTDYADSVKGRFTISRDNSKNTLYLQMNSLRPEDTALYYCAADTLYTSLTWYMYWGQGTLVTVSS
2. T0263018B11 A33Q (VHH, name in Kabat numbering, FLAG3-His6 tagged) VHH: EVQLVESGGGVVQPGGSLRLSCAASGFTFSSYQMYWVRQAPGKGLEWVSAISSGGGSTDYADSVKGRFTISRDNSKNTLYLQMNSLRPEDTALYYCAADTLYTSLTWYSYWGQGTLVTVSS
3. T0263018B11 S52aN (VHH, name in Kabat numbering, FLAG3-His6 tagged) VHH: EVQLVESGGGVVQPGGSLRLSCAASGFTFSSYAMYWVRQAPGKGLEWVSAISNGGGSTDYADSVKGRFTISRDNSKNTLYLQMNSLRPEDTALYYCAADTLYTSLTWYSYWGQGTLVTVSS
4. T0263018B11 S101E (VHH, name in Kabat numbering, FLAG3-His6 tagged) VHH: EVQLVESGGGVVQPGGSLRLSCAASGFTFSSYAMYWVRQAPGKGLEWVSAISSGGGSTDYADSVKGRFTISRDNSKNTLYLQMNSLRPEDTALYYCAADTLYTSLTWYEYWGQGTLVTVSS
5. T0263018B11 W100cD (VHH, name in Kabat numbering, FLAG3-His6 tagged) VHH: EVQLVESGGGVVQPGGSLRLSCAASGFTFSSYAMYWVRQAPGKGLEWVSAISSGGGSTDYADSVKGRFTISRDNSKNTLYLQMNSLRPEDTALYYCAADTLYTSLTDYSYWGQGTLVTVSS

Output line:
54
48
60
36
45

Quick batch: kd ratio pH 7.4/6.0 for everything below.
1. T0263018B11 S56T (VHH, name in Kabat numbering, FLAG3-His6 tagged) VHH: EVQLVESGGGVVQPGGSLRLSCAASGFTFSSYAMYWVRQAPGKGLEWVSAISSGGGTTDYADSVKGRFTISRDNSKNTLYLQMNSLRPEDTALYYCAADTLYTSLTWYSYWGQGTLVTVSS
2. T0263018B11 S52R (VHH, name in Kabat numbering, FLAG3-His6 tagged) VHH: EVQLVESGGGVVQPGGSLRLSCAASGFTFSSYAMYWVRQAPGKGLEWVSAIRSGGGSTDYADSVKGRFTISRDNSKNTLYLQMNSLRPEDTALYYCAADTLYTSLTWYSYWGQGTLVTVSS
3. T0263018B11 G26K (VHH, name in Kabat numbering, FLAG3-His6 tagged) VHH: EVQLVESGGGVVQPGGSLRLSCAASKFTFSSYAMYWVRQAPGKGLEWVSAISSGGGSTDYADSVKGRFTISRDNSKNTLYLQMNSLRPEDTALYYCAADTLYTSLTWYSYWGQGTLVTVSS
4. T0263018B11 Y102T (VHH, name in Kabat numbering, FLAG3-His6 tagged) VHH: EVQLVESGGGVVQPGGSLRLSCAASGFTFSSYAMYWVRQAPGKGLEWVSAISSGGGSTDYADSVKGRFTISRDNSKNTLYLQMNSLRPEDTALYYCAADTLYTSLTWYSTWGQGTLVTVSS

Output line:
1: 47; 2: 24; 3: 101; 4: 50
